Method summary: physchem
Assay type: physicochemical
Condition summary: water; pH 8, room temperature; read-out: solubility value
Let's look at some compounds and their measured solubility.
Could you give the number and then its unit, please?

COc1ccc(C[C@H]2NC(=O)/C=C/C[C@@H]([C@H](C)[C@@H](OC(=O)CN)[C@@H](Cl)c3ccccc3)OC(=O)[C@H](CC(C)C)OC(=O)C(C)(C)CNC2=O)cc1Cl : 30 µg/mL

Kindly review the next compound as well.
Per the record, COc1ccc(C[C@H]2NC(=O)/C=C/C[C@@H]([C@H](C)[C@@H](O)[C@@H](Cl)c3ccccc3)OC(=O)[C@H](CC(C)C)OC(=O)C(C)(C)CNC2=O)cc1Cl has solubility of 10 µg/mL
